- experimental_system: RORγ (UniProt P51449)
- Construct: hRORg-LBD|aa259-518|NP_005051.2; hRORgt|aa1-497|NP_001001523 (RORg, t isoform, 497aa); mRORg-LBD|aa264-516|NP_035411
- Type: cell-based
- measurement_parameters: renilla normalised (RENnorm) luciferase, 293T cells, 16 h
property_label: pIC50 (REN)
Simply state the number, no unit and no words.

Worked set:
compound	property_label	meas_value
CC(C)(C)NS(=O)(=O)c1ccc(-c2c(Cl)c(C(=O)N[C@H]3C[C@H](C(=O)O)C3)nn2CC2CCCCC2)cc1C(F)(F)F [Example 108]	pIC50 (REN)	6.4
Cn1c(C(=O)NCC2(O)CCS(=O)(=O)CC2)cc(-c2ccc(S(=O)(=O)NC(C)(C)C)c3ccccc23)c1CC1CCCCC1 [8/5]	pIC50 (REN)	7.6
Cc1c(C(=O)N[C@H]2C[C@H](C(=O)O)C2)cn(-c2cc(C(C)(C)C)cc(C3(C)CC3)c2)c1SC1CCCCC1 [Example 21]	pIC50 (REN)	8.2
CC(C)(O)CNC(=O)c1nc(-c2cc(C(C)(C)C)c(O)c(C(C)(C)C)c2)n(CC2CCCCC2)n1 [308/6]	pIC50 (REN)	6.5
Cc1c(C(=O)NCCC(C)(C)C(=O)O)cn(-c2ccc(S(=O)(=O)NC(C)(C)C)c(C(F)(F)F)c2)c1CC1CCCCC1 [Example 4]	pIC50 (REN)	7.7

Input line: Consider the compound CC(C)(O)CNC(=O)c1nn(-c2cc(C(C)(C)C)cc(C(C)(C)C)c2)c(CC2CCCCC2)c1Cl [103/5] and give its measured pIC50 (REN).
Output line: 6.3

Input line: Would you mind telling me what pIC50 (REN) value was observed for Cc1c(C(=O)NC2CCOCC2)cn(-c2cc(Br)cc(C(C)(C)C)c2)c1C=C1CCCCC1 [Example 2] ?
Output line: 6.5

Input line: I am curious: what pIC50 (REN) value has been reported for Cc1c(C(=O)NC2CCOCC2)cn(-c2cc(C(C)(C)C)cc(C3(C)CC3)c2)c1C(=O)N1CCCCC1 [Example 13] ?
Output line: 7.1

---

Form field: pIC50 (FF) (one value per entry).
- experimental_system: RORγ (UniProt P51449)
- Construct: hRORg-LBD|aa259-518|NP_005051.2; hRORgt|aa1-497|NP_001001523 (RORg, t isoform, 497aa); mRORg-LBD|aa264-516|NP_035411
- Type: cell-based
- measurement_parameters: firefly (FF) luciferase, 293T cells, 16 h
Lab note: jot down the number only; don't add units.

Some molecules with known pIC50 (FF) results, for comparison:
molecule	meas_value
CC(C)(C)c1cc(-c2nc(C(=O)NC3CCOCC3)nn2CC2CCCCC2)cc(C(C)(C)C)c1O [308/4]	6.3
CC(C)(C)c1cc(-n2nc(C(N)=O)c(Cl)c2CC2CCCCC2)cc(C(C)(C)C)n1 [Example 315]	6.7
C[C@H](NC(=O)c1cc(-c2cc(C(=O)N[C@H]3C[C@H](C(=O)O)C3)n(C)c2CC2CCCCC2)cc(C2(C)CC2)c1)C(F)(F)F [8/17]	7.7

Input line: Consider the molecule C[C@@H](O)CNC(=O)c1nc(-c2cc(C(C)(C)C)c(O)c(C(C)(C)C)c2)n(CC2CCCCC2)n1 [308/7] and give its measured pIC50 (FF).
Output line: 5.7

Input line: Return reported pIC50 (FF); argument: Cc1c(C(=O)N[C@H]2C[C@H](C(=O)O)C2)cn(-c2cc(C(C)(C)C)cc(C3(C)CC3)c2)c1C(=O)N1CCCCC1 [Example 13/1]
Output line: 6.7

Input line: Name the reported pIC50 (FF) value associated with the molecule Cc1c(C(N)=O)cn(-c2cc(C(C)(C)C)cc(C(C)(C)C)c2)c1CC1CCCCC1 [Example 305]
Output line: 6.3

Input line: Look at this molecule and give its reported pIC50 (FF). Cn1c(C(=O)NC2CCOCC2)cc(CC2CCCCC2)c1-c1cc(C(C)(C)C)cc(C2(C)CC2)c1 [19/2]
Output line: 6.9

Input line: # input molecule: Cc1c(C(=O)NCC(C)(C)O)cn(-c2cc(C(C)(C)C)cc(C3(C)CC3)c2)c1CC1CCCCC1 [Example 1/1] ; wanted: its pIC50 (FF)
Output line: 7.4

Input line: Query: pIC50 (FF); subject: CC(C)(C)c1cc(-c2cc(C(=O)NC3CCOCC3)nn2CC2CCCCC2)cc(C2(C)CC2)c1 [100/1]
Output line: 7.3

Input line: Entry Cc1c(C(=O)NCCC(C)(C)C(=O)O)c(F)n(-c2ccc(S(=O)(=O)NC(C)(C)C)c(C(F)(F)F)c2)c1CC1CCCCC1 [Example 25] : reported pIC50 (FF) = ?
Output line: 8.3

Input line: Which pIC50 (FF) is listed for CC(C)(C)c1cc(-c2cc(C(=O)N[C@H]3C[C@H](C(=O)O)C3)nn2CC2CCCCC2)cc(C2(C)CC2)c1 [Example 100] ?
Output line: 6.9

Input line: Quick check: pIC50 (FF) of CC(C)(C)NS(=O)(=O)c1ccc(-c2cc(C(=O)NCCC(C)(C)C(=O)O)nn2CC2CCCCC2)cc1C(F)(F)F [100/7] ?
Output line: 6.2

Input line: What does the data say about its pIC50 (FF)? Entry: Cc1c(C(=O)N[C@H]2C[C@H](C(=O)O)C2)cn(-c2ccc(S(=O)(=O)NC(C)(C)C)c(C(C)(C)C)c2)c1CC1CCCCC1 [Example 4/1]
Output line: 7.2

Input line: Bench note: what pIC50 (FF) did Cn1c(C(=O)N[C@H]2C[C@H](C(=O)O)C2)c(Cl)c(CC2CCCCC2)c1-c1cc(C(C)(C)C)cc(C2(C)CC2)c1 [Example 18/1] show?
Output line: 6.6

Input line: Need pIC50 (FF) of Cc1c(C(=O)N[C@H]2C[C@H](C(=O)O)C2)c(C)n(-c2cc(C(C)(C)O)cc(C3(C)CC3)c2)c1CC1CCCCC1 [Example 16] , thanks.
Output line: 6.6

Input line: Item Cn1c(C(=O)NC2CCS(=O)(=O)CC2)cc(-c2ccc(S(=O)(=O)NC(C)(C)C)c3ccccc23)c1C(=O)C1CCCCC1 [26/4] has what recorded pIC50 (FF)?
Output line: 7.7

Input line: Which pIC50 (FF) reading was recorded for the molecule Cn1c(C(=O)N[C@H]2CC[C@H](C(=O)O)CC2)cc(-c2cc(C(C)(C)C)cc(C3(C)CC3)c2)c1CC1CCCCC1 [8/11] ?
Output line: 7.3

Input line: Which pIC50 (FF) reading was recorded for the molecule Cc1c(C(=O)NCCC(C)(C)C(=O)O)c(C#N)n(-c2ccc(S(=O)(=O)NC(C)(C)C)c(C(F)(F)F)c2)c1CC1CCCCC1 [Example 10] ?
Output line: 6.9
